meta.source: PubChem BioAssay (NCI)

test system: KM12 colon; assay: NCI-60 one-dose screen, 48 h; conditions: 10 µM unless noted
About 83,000 compounds went through this panel and 20% of them were active in at least one assay; those are over-represented in the sample as a whole. Activity calls are given as the source filed them. The calls were made as follows: active = growth percent below 10; inactive = the rest.
The reply should be one of these categories: label 1 (active), label 0 (inactive)

q: Which outcome was entered for the compound C/C=C(\C)C(=O)O[C@@H]1C(O)[C@H]2OC(COC(=O)CCC(=O)CCCCCC[C@H](CCCCC)O[C@@H]3OC(C)[C@H](OC(C)=O)C(O)[C@H]3O2)[C@H]1OC(=O)/C=C/c1ccccc1 (stereo not given in full) in this test?
a: label 0

q: Which outcome was entered for the compound CCC1CC(O)c2c(O)c3c(c(O)c2C1O)C(=O)c1cccc(O)c1C3=O (stereo not given) (tested in a mixture with another compound) in this test?
a: label 1

q: Which outcome was entered for the compound CN(C)C1C(=O)C(C(N)=O)=C(O)C2(O)C(=O)C3=C(O)c4c(O)cccc4C(C)(O)C3CC12.[Cl][Sb]([Cl])[Cl] (stereo not given) in this test?
a: label 0

q: Which outcome was entered for the compound COC(=O)[C@@H](C)C[C@H](Cc1ccccc1)NC(=O)c1csc([C@@H](C[C@H](C(C)C)N(C)C(=O)[C@H](C)NC(=O)[C@H]2CCCN2C)OC(C)=O)n1 in this test?
a: label 0

q: Which outcome was entered for the compound COc1ccc(/C=C\c2cc(OC)c(OC)c(OC)c2)cc1OCC(=O)Nc1nc2ccc(F)cc2s1 in this test?
a: label 0

q: Which outcome was entered for the compound CCC1(C(C)C)C(=O)NC(=S)NC1=O in this test?
a: label 0

q: Which outcome was entered for the compound CC(C)(C)C(=O)OCOP(=O)(NCc1ccccc1)C1CCCN(O)C1=O (stereo not given) in this test?
a: label 1

q: Which outcome was entered for the compound CC1(C)N=C(N)N=C(N)N1c1ccc(CCC(=O)Nc2ccc(S(=O)(=O)F)cc2)c(Cl)c1 in this test?
a: label 0

q: Which outcome was entered for the compound Cn1cc(C=O)c2nccnc21 in this test?
a: label 0

q: Which outcome was entered for the compound CC1=C2[C@@H](CC1)[C@]1(C)O[C@@](C(C)C)(C[C@H]1O)[C@H]2OC(=O)C1CC1c1ccccc1 (stereo not given in full) in this test?
a: label 0

q: Which outcome was entered for the compound CC(=O)Nc1ccc(NC(=O)c2ccc([As](O)O)cc2)cc1 in this test?
a: label 0

q: Which outcome was entered for the compound CC1=C(CCCOC(=O)[C@H](N)CC(C)C)C2=C(C)C3(CC3)[C@@](C)(O)C(=O)C2=C1 in this test?
a: label 0

q: Which outcome was entered for the compound COc1cc2c(cc1OCCCn1c(-c3ccccn3)nc3ccccc31)N=C[C@@H]1CCCN1C2=O in this test?
a: label 1

q: Which outcome was entered for the compound C[C@]12C[C@@H](CO)[C@H](O)C[C@@H]1CC[C@@H]1[C@@H]2CC[C@]2(C)[C@@H](O)CC[C@@H]12 in this test?
a: label 0

q: Which outcome was entered for the compound CC(=O)O[C@H]1C(=O)[C@@]2(C)[C@H]([C@H](OC(=O)c3ccccc3)[C@]3(O)C[C@H](OC(=O)[C@H](OC(=O)OCC4COC(C)(C)O4)[C@@H](NC(=O)c4ccccc4)c4ccccc4)C(C)=C1C3(C)C)[C@]1(OC(C)=O)CO[C@@H]1C[C@@H]2O (stereo not given in full) in this test?
a: label 0

###

tested on: LOX IMVI melanoma; assay: NCI-60 one-dose screen, 48 h (100 = growth as untreated, 0 = no growth, -100 = all killed); settings: 10 µM unless noted
Compounds without any hit were thinned out: in the full panel of roughly 83,000, 20% have a hit. Calls of active or inactive are those of the source. The calls were made as follows: active = growth percent below 10; inactive = the rest.
PARAMETER_MEASURED: growth

q: Give the reported growth for O=C(O)c1ccc([S-])cc1.[Au+].c1ccc(CN2[CH-]N(Cc3ccccc3)C(c3ccccc3)=C2c2ccccc2)cc1 (system: LOX IMVI melanoma).
a: -78.9% (active)

q: Give the reported growth for C/C(=C\c1ccn(-c2ccc(N)c(F)c2)n1)[C@@H]1C[C@@H]2O[C@]2(C)CCC[C@H](C)[C@H](O)[C@@H](C)C(=O)C(C)(C)[C@@H](O)CC(=O)O1 (system: LOX IMVI melanoma).
a: 32.4% (inactive)

q: Give the reported growth for CCCc1cc(O)c2c3c(c(=O)oc2c1)CN(C)CC3 (system: LOX IMVI melanoma).
a: 30.9% (inactive)

q: Give the reported growth for CN[C@@]1(c2ccccc2Cl)CCCC[C@@H]1NCC1CCCO1 (stereo not given in full) (system: LOX IMVI melanoma).
a: 97.8% (inactive)

q: Give the reported growth for N#CC1C(C#N)C2CCC1C1C2N1c1ccccc1 (stereo not given) (system: LOX IMVI melanoma).
a: 103% (inactive)

###

system: UACC-257 melanoma; assay: NCI-60 one-dose screen, 48 h; settings: 10 µM unless noted
The panel holds about 83,000 compounds, 20% with a hit somewhere; the sample as a whole holds those more often. Active and inactive are the calls of the source. How the source made its calls: active means growth percent below 10; inactive means the rest.
The reply should be one of these categories: Y for active, N for inactive

q: Which outcome was entered for the molecule C#C[C@]1(OC(=O)CCCCCC)CC[C@H]2[C@@H]3CCC4=CC(=O)CC[C@@H]4[C@H]3CC[C@@]21C in this test?
a: N

q: Which outcome was entered for the molecule CCCC[C@H](NC(=O)[C@H]1CCCN1C)C(=O)N(C)[C@H](C[C@@H](OC(C)=O)c1nc(C(=O)N[C@@H](Cc2ccccc2)C[C@H](C)C(=O)OCC)cs1)C(C)C in this test?
a: N

q: Which outcome was entered for the molecule O=C(CC1(O)C(=O)Nc2ccccc21)c1ccc(C(=O)NCC2CCC3(CC2)OOC2(CCCCC2)OO3)cc1 (centres undefined) in this test?
a: N

q: Which outcome was entered for the molecule c1ccc(CSC(c2ccccc2)c2ccccc2)cc1 in this test?
a: N

q: Which outcome was entered for the molecule OCCCCCNC1CCCCC1 in this test?
a: N

q: Which outcome was entered for the molecule CCOC(=S)S[C@H]1C[C@@H]2[C@H](CC[C@]3(C)C(=O)CC[C@@H]23)[C@@]2(C)CCC(=O)C=C12 in this test?
a: N

q: Which outcome was entered for the molecule CS(=O)(=O)CCN1CC2CCCC(C2)C1 in this test?
a: N

q: Which outcome was entered for the molecule CCn1c2ccccc2c2cc(C(=O)c3cccc4c3CCCN4)ccc21 in this test?
a: N

q: Which outcome was entered for the molecule O=C(CCCC1CCCCC1)OCC(Cl)(Cl)Cl in this test?
a: N

q: Which outcome was entered for the molecule N#CC1C(C#N)C2CCC1C1C2N1c1ccccc1 (centres undefined) in this test?
a: N

q: Which outcome was entered for the molecule CC[C@H](C)[C@@H]([C@@H](CC(=O)N1CCC[C@H]1[C@H](OC)[C@@H](C)C(=O)N[C@H](C)[C@@H](O)c1ccccc1)OC)N(C)C(=O)[C@@H](NC(=O)[C@@H](NC)C(C)C)C(C)C in this test?
a: N

q: Which outcome was entered for the molecule CC1=C2[C@@H](CC1)[C@]1(C)O[C@@](C(C)C)(C[C@H]1O)[C@H]2OC(=O)C1CC1c1ccccc1 (some centres undefined) in this test?
a: N

q: Which outcome was entered for the molecule C=C1C(=O)O[C@H]2[C@H]1CC/C(COC(=O)C(=O)c1cn(Cc3ccccc3)c3ccccc13)=C\CC[C@@]1(C)O[C@@H]21 in this test?
a: Y

q: Which outcome was entered for the molecule N#CCCNc1ccccc1 in this test?
a: N

q: Which outcome was entered for the molecule Fc1ccc2c(c1)c(-c1nc(-c3c[nH]c4ncccc34)cs1)cn2CCCCN1CCCCC1 in this test?
a: Y

q: Which outcome was entered for the molecule CC[C@H](C)[C@H](NC(=O)[C@H]1CCCCN1C)C(=O)N(C)[C@H](C[C@@H](OC(C)=O)c1nc(C(=O)NC23CC(C(=O)OC)(C2)C3)cs1)C(C)C in this test?
a: N

q: Which outcome was entered for the molecule O=[N+]([O-])c1cnc[nH]1 in this test?
a: N

q: Which outcome was entered for the molecule O=C(N/N=C\c1ccc(N(CCCl)CCCl)cc1Cl)c1cccnc1 in this test?
a: Y

q: Which outcome was entered for the molecule Clc1cccc(NCOOC2(OOCNc3cccc(Cl)c3)CCCCCC2)c1 in this test?
a: N

###

System: RPMI-8226 leukemia
Experiment: NCI-60 one-dose screen, 48 h (100 = growth as untreated, 0 = no growth, -100 = all killed)
Conditions: 10 µM unless noted
Method: Growth inhibition of the RPMI-8226 human tumor cell line is measured as a screen for anti-cancer activity. Cells are grown in 96 well plates and exposed to the test compound for 48 hours. Compounds are tested at a single concentration, which is 10^-5 M for most compounds. The reported endpoint is percent growth (GI% or GIPRCNT), where numbers from 0 - 100% represent growth inhibition, and numbers from -100% - 0 represent cell death. For example, a value of 40 represents 60% growth inhibition. […]
The panel holds about 83,000 compounds, 20% with a hit somewhere; the sample as a whole holds those more often. Active and inactive are the calls of the source. The calls were made as follows: active = growth percent below 10; inactive = the rest.
Task for the reader: assign each of the following molecules its reported growth.

q: Recorded growth of COC(=O)[C@@H](C)C[C@H](Cc1ccccc1)NC(=O)c1csc([C@@H](C[C@H](C(C)C)N(C)C(=O)[C@@H](NC(=O)CN(C)C)C2CC2)OC(C)=O)n1 , please.
a: 34.3% (inactive)

q: Recorded growth of CC(=O)Nc1ccc(NC(=O)c2ccc([As](O)O)cc2)cc1 , please.
a: 34.5% (inactive)

q: Recorded growth of COc1ccc(-n2c(C)nc3cc(OC)c(OC)cc3c2=O)cc1OC , please.
a: 104% (inactive)

q: Recorded growth of CC1=C2[C@@H](CC1)[C@]1(C)O[C@@](C(C)C)(C[C@H]1O)[C@H]2OC(=O)C1CC1c1ccccc1 (some centres not stated) , please.
a: 58.2% (inactive)

q: Recorded growth of CC[C@]12C=CCN3CC[C@@]4(c5ccc(OC)cc5N(C)[C@H]4[C@@](O)(C(=O)OC)[C@@H]1OC(=O)CCCC[P+](c1ccccc1)(c1ccccc1)c1ccccc1)[C@@H]32 , please.
a: 15.4% (inactive)

q: Recorded growth of CC[C@H](C)[C@H](NC(=O)C12C3C4C1C1C2C3C41NC)C(=O)N(C)[C@H](C[C@@H](OC(C)=O)c1nc(C(=O)N[C@@H](Cc2ccccc2)C[C@H](C)C(=O)OC)cs1)C(C)C (some centres not stated) , please.
a: 3.54% (active)

q: Recorded growth of CC(C)(NC(=O)O[C@@H]1CN2CCC1CC2)c1csc(-c2ccc(F)cc2)n1 , please.
a: 103% (inactive)

q: Recorded growth of CCC1CN1CCCCN1CC1CC (configuration not stated) , please.
a: 102% (inactive)

q: Recorded growth of NC(=O)C(Br)c1ccccc1 (configuration not stated) , please.
a: 96.6% (inactive)

q: Recorded growth of CC(=O)O[C@H](C[C@H](C(C)C)N(C)C(=O)[C@@H](NC(=O)[C@H]1CCCCN1C)C(C)C)c1cccc(C(=O)N[C@@H](Cc2ccccc2)C[C@H](C)C(=O)O)n1 , please.
a: 19.7% (inactive)

q: Recorded growth of CCOP(=O)(NC[C@H]1O[C@](O)(CO)[C@@H](O)[C@@H]1O)OCC , please.
a: 101% (inactive)

q: Recorded growth of C=COC(=O)CCN1CC1 , please.
a: 104% (inactive)

q: Recorded growth of CCOC(=O)CCC(NC(=O)C(Cc1ccc(N(CCCl)CCCl)cc1)NC=O)C(=O)OCC (configuration not stated) , please.
a: 30.6% (inactive)

q: Recorded growth of CC[C@]12C=CCN3CC[C@]4(C(=C(C(=O)OC)C1)Nc1cc(OC)c(OC(C)=O)cc14)[C@@H]32 , please.
a: 7.27% (active)

q: Recorded growth of C#C[C@]1(OC(=O)CCCCCC)CC[C@H]2[C@@H]3CCC4=CC(=O)CC[C@@H]4[C@H]3CC[C@@]21C , please.
a: 1.02% (active)

q: Recorded growth of COc1ccc2nc(NC(=O)COc3cc(/C=C\c4cc(OC)c(OC)c(OC)c4)ccc3OC)sc2c1 , please.
a: 20.9% (inactive)

q: Recorded growth of CC(C)(C)N1CC1C#N (configuration not stated) , please.
a: 99.2% (inactive)
